Target: Regulator of G-protein signaling 19 (Homo sapiens)
Sequence (P49795 whole entry): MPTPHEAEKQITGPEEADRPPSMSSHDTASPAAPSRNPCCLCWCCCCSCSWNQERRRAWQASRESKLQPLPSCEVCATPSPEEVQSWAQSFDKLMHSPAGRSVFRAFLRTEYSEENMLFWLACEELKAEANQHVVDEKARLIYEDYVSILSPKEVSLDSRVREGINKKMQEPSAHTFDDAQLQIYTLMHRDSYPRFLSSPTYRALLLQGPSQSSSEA
Experiment: analogs regulating RGS19 interaction with Gαo – biochemical, SAR compounds, multiplexed bead flow cytometry, SAR follow-up (AID 2311)
ATTRIBUTE MEASURED: Ki

[
  {
    "CHEMICAL STRING": "NS(=O)(=O)c1ccc(N=NCc2ccc(O)c(O)c2O)c([N+](=O)[O-])c1",
    "ATTRIBUTE MEASURED": "Ki",
    "RESULT": "100 nM"
  }
]
